Values were extracted from patent US20250340574A1.

Reported pEC50 by item:
- target.desc: CFTR (F508del/MF-HBE cells) (Homo sapiens, UniProt P13569, DEL508-508)
- Construct: human bronchial epithelial (HBE) cells derived from CF subjects heterozygous for F508del and a minimal function CFTR mutation (F508del/MF-HBE); endogenous in cells; host or cells: Primary human bronchial epithelial cells from CF subjects (F508del/MF genotype), differentiated at an air-liquid interface
- Sequence (P13569 with tags, fused parts or gaps DEL508-508): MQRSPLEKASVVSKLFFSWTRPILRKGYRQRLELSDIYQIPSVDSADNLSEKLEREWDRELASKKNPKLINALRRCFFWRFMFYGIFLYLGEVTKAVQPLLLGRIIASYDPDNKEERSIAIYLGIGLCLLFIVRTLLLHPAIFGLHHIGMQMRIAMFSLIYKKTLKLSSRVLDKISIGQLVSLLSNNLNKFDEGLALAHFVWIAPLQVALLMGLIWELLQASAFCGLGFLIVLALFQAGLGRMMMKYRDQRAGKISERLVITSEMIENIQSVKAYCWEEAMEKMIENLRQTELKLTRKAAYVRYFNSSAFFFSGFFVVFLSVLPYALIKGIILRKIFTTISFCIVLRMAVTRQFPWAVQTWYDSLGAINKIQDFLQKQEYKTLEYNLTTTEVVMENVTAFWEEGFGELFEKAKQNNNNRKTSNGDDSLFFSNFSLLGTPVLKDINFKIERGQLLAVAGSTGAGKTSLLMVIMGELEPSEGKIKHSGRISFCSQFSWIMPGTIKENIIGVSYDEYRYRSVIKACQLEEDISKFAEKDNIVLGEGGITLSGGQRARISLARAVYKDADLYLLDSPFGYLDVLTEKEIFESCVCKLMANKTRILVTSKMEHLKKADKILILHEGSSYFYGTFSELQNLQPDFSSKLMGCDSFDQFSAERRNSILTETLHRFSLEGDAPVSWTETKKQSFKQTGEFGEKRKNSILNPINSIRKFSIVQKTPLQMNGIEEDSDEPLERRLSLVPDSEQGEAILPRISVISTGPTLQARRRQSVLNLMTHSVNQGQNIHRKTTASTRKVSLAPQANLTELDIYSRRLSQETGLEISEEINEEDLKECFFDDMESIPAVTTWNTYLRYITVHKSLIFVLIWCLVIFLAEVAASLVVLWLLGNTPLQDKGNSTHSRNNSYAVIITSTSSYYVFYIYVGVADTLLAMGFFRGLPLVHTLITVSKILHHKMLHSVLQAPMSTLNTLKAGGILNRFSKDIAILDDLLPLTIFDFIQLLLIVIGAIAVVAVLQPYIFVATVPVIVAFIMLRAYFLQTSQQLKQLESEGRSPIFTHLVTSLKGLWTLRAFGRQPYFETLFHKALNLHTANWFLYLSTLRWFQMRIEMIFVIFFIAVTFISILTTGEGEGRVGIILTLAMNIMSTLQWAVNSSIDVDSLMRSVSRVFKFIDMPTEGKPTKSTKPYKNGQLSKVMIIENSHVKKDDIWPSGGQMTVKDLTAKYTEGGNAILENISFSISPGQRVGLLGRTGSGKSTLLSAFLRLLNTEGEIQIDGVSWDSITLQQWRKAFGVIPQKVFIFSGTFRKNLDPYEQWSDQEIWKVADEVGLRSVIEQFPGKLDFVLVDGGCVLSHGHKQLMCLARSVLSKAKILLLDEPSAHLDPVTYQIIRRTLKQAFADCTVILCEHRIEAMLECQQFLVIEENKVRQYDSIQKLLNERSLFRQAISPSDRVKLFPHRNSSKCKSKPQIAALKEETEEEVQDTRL
- assay.details: Ussing chamber assay of CFTR-mediated short-circuit currents, Assay C (0.026 μM to 25 μM, 6 concentrations)
- Type: cell-based
- stated.conditions: with 33 nM potentiator and 18 μM Tezacaftor, 20% human serum
pEC50: −log10 of the molar value.

1) Cc1cccc(COC(C)C)c1-c1nc2nc(c1C)OC[C@@H](CC(C)(C)C)N(Cc1cnc3oc(C4CC4)cc3n1)C(=O)c1cccc(c1)S(=O)(=O)N2    5.52 to 6.00
2) Cc1cccc(CC(C)C)c1-c1nc2nc(c1C)OC[C@@H](CC1(C)CC1)N(Cc1cnc3oc(C(C)(C)C)cc3n1)C(=O)c1cccc(c1)S(=O)(=O)N2 (atropisomer, axis not shown)    5.52 to 6.00
3) Cc1cccc(C)c1-c1nc2nc(c1C)OC[C@@H](CC(C)(C)C)N(Cc1cnc3cc(C(C)C)n(C)c3n1)C(=O)c1cccc(c1)S(=O)(=O)N2    > 6.00
4) Cc1cccc(C)c1-c1nc2nc(c1C)OC[C@@H](CC(C)(C)C)N(Cc1ncc3cc(C4CC4)n(C)c3n1)C(=O)c1cccc(c1)S(=O)(=O)N2    5.52 to 6.00

Challenge: Look up pEC50: Cc1cccc(C(C)C)c1-c1nc2nc(c1C)OC[C@@H](CC(C)(C)C)N(Cc1cnc3oc(C4(C)CC4)cc3n1)C(=O)c1cccc(c1)S(=O)(=O)N2 (atropisomer, axis not shown)
Response given: > 6.00

---

- target.desc: CFTR (F508del/MF-HBE cells) (Homo sapiens, UniProt P13569, DEL508-508)
- Construct: human bronchial epithelial (HBE) cells derived from CF subjects heterozygous for F508del and a minimal function CFTR mutation (F508del/MF-HBE); endogenous in cells; host or cells: Primary human bronchial epithelial cells from CF subjects (F508del/MF genotype), differentiated at an air-liquid interface
- assay.details: Ussing chamber assay of CFTR-mediated short-circuit currents, Assay A (0.1 μM to 25 μM, 6 concentrations)
- Format: cell-based
- stated.conditions: with 33 nM potentiator and 18 μM Tezacaftor, 20% human serum
- Procedure: Ussing chamber experiments were performed using human bronchial epithelial (HBE) cells derived from CF subjects heterozygous for F508del and a minimal function CFTR mutation (F508del/MF-HBE) and cultured as previously described (Neuberger T, Burton B, Clark H, Van Goor F Methods Mol Biol 2011:741:39-54). […] The activity of the CFTR corrector compounds on the CFTR-mediated ISC was determined in Ussing chamber studies as described above. […]
pEC50: −log10 of the molar value.
Reported pEC50 by item:

1) Cc1cccc(C)c1-c1cc2nc(n1)NS(=O)(=O)c1cccc(c1)C(=O)N(Cc1cnc3oc(C(C)(C)C)cc3n1)[C@H](CC13CC(C1)C3)CO2    > 6.00

Challenge: Please state recorded pEC50 (tested on CFTR (F508del/MF-HBE cells) (Homo sapiens, UniProt P13569, DEL508-508)) of `Cc1cccc(C)c1-c1cc2nc(n1)NS(=O)(=O)c1cccc(c1)C(=O)N(Cc1cnc3oc(C)c(C4CC4)c3n1)[C@H](CCC(C)(C)C)CO2`
Response given: > 6.00

Challenge: Same thing, different compound: `Cc1cccc(C)c1-c1cc2nc(n1)NS(=O)(=O)c1cccc(c1)C(=O)N(Cc1nc3c(cc1F)cc(C(C)C)n3C)[C@H](CC(C)(C)C)CO2`
Response given: > 6.00

Challenge: Same thing, different compound: Cc1cccc(C)c1-c1cc2nc(n1)NS(=O)(=O)c1cccc(c1)C(=O)N(Cc1cnc3cc(C(C)C)n(C)c3n1)[C@@H](CCC1(C)CC1)CO2 (stereo in doubt)
Response given: > 6.00

Challenge: Same thing, different compound: `Cc1cccc(C)c1-c1cc2nc(n1)NS(=O)(=O)c1cccc(c1)C(=O)N(Cc1cnc3oc(C4CC4)cc3n1)[C@H](CC13CC(C1)C3)CO2`
Response given: > 6.00

Challenge: Same thing, different compound: `Cc1cccc(C)c1-c1cc2nc(n1)NS(=O)(=O)c1cccc(c1)C(=O)N(Cc1cnc3oc(C(C)C)cc3n1)[C@H](CCC(C)C)CO2`
Response given: > 6.00
